test: PK experiments in mice; type: in vivo; details: mouse, plasma, 20 mg/kg; male BalbC mice, @20 mpk PO; @1 mpk IV
Assay Readout: bioavailability (%)

Molecule | Assay Readout | Test Value
CN(C)C[C@H](c1cccc(Br)c1)n1ccc(-c2c[nH]c3ncc(N4CCOCC4)cc23)cc1=O [Compound no5 (S)] | bioavailability | 9.2

###

biological target: CYP 3A4 (Homo sapiens); construct: endogenous in cells; experiment: CYP 3A4 inhibition assay in human hepatocytes; settings: cryopreserved human hepatocytes, midazolam probe substrate, 10 min
Sequence (P08684 whole entry): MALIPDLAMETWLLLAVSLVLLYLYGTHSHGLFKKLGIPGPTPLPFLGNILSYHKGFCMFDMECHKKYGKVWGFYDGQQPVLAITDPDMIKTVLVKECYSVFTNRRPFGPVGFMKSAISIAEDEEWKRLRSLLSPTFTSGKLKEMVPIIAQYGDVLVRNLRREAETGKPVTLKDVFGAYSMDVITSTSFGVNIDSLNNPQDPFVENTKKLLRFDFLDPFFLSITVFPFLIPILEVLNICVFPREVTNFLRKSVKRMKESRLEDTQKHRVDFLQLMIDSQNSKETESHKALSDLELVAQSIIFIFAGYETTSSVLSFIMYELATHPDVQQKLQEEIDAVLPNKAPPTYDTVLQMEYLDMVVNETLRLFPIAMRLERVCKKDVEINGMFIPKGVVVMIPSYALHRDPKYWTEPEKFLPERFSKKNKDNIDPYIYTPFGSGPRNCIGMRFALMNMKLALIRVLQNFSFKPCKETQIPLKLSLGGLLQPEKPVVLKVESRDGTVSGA
pIC50: −log10 of the molar value.
Assay Readout: pIC50

Compound | Assay Readout | Test Value
CN(C)C[C@H](c1cccc(Br)c1)n1ccc(-c2c[nH]c3ncc(N4CCOCC4)cc23)cc1=O [Compound no5 (S)] | pIC50 | 5.02

Origin of measurements: patent US11827637B2
